target entity: isomaltase (α-Glcase2) (Saccharomyces cerevisiae, UniProt P53051)
Construct: purchased
Sequence (P53051 whole entry): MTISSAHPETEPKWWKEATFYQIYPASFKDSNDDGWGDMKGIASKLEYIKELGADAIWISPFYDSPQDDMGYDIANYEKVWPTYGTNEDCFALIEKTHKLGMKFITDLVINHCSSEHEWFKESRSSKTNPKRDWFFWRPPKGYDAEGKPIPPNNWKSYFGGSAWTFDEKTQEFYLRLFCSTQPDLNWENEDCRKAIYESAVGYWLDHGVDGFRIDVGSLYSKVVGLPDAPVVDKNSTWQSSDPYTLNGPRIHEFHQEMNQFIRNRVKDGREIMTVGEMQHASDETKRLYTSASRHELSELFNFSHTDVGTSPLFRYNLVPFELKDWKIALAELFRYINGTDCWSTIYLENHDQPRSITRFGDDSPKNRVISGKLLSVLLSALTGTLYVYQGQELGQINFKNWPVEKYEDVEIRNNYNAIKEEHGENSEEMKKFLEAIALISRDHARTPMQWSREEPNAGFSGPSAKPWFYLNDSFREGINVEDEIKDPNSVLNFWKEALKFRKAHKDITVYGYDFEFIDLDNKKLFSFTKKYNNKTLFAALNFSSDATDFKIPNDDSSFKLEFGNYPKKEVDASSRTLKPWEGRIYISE
measurement notes: Commercial glycosidase inhibition: isomaltase (α-Glcase2)
Format: biochemical
reported conditions: mean ± SD, three determinations; competitive; n.i. = no inhibition detected at 1 mM; read-out: Ki α-Glcase2
Procedure: […] Inhibition constant (Ki) values were determined by spectrophotometrically measuring the residual hydrolytic activities of the glycosidases against the respective o- (for β-galactosidase from E. coli) or p-nitrophenyl α- or β-D-glycopyranoside (for other glycosidases) in the presence of the iminosugars. […] The absorbance of the resulting mixture was determined at 405 nm. […]
observable: pKi
The meaning of pKi here: minus log10 of the concentration in molar units.

CCCCCCCCNC(=S)N1C[C@H](O)[C@@H](O)[C@H](O)[C@H]1CO ... 3.94
OC[C@@H]1[C@@H](O)[C@H](O)[C@@H](O)CN1C(=S)Nc1ccccc1 ... 5.00
CCCCNC(=S)N1C[C@H](O)[C@@H](O)[C@H](O)[C@H]1CO ... 3.92

# query: pKi of entry OC[C@H]1[C@@H](O)[C@H](O)[C@@H](O)CN1C(=S)Nc1ccccc1
3.35

###

Here the recorded Ki is given for each entry.
target entity: α-glucosidase maltase (yeast maltase; α-Glcase1) (Saccharomyces cerevisiae)
Construct: purchased
measurement notes: Commercial glycosidase inhibition: maltase (yeast maltase; α-Glcase1)
Assay type: biochemical
reported conditions: Ki α-Glcase1, mean ± SD, three determinations; competitive; n.i. = no inhibition detected at 1 mM
Kindly provide the numeric value in µM only, without the unit symbol.

Look at this compound and give its reported Ki. OC[C@@H]1[C@@H](O)[C@H](O)[C@@H](O)CN1C(=S)Nc1ccccc1 [Compound 12]
60

Name the reported Ki value associated with the compound OC1CN2C(=Nc3ccccc3)SCC2C(O)C1O (centres unmarked) [Compound 6]
406

Need Ki, item OC[C@H]1[C@@H](O)[C@H](O)[C@@H](O)CN1C(=S)Nc1ccccc1 [Compound 15]
293

Fill in: Ki of OC1CN2C(=Nc3ccccc3)SCC2C(O)C1O (centres unmarked) [Compound 9] is ___
262

What does the record list as Ki for CCCCCCCCNC(=S)N1C[C@H](O)[C@@H](O)[C@H](O)[C@H]1CO [Compound 10] ?
481

###

target entity: β-galactosidase (β-Galase) (Escherichia coli)
Construct: purchased
Sequence (P00722 2-1024 limits assumed): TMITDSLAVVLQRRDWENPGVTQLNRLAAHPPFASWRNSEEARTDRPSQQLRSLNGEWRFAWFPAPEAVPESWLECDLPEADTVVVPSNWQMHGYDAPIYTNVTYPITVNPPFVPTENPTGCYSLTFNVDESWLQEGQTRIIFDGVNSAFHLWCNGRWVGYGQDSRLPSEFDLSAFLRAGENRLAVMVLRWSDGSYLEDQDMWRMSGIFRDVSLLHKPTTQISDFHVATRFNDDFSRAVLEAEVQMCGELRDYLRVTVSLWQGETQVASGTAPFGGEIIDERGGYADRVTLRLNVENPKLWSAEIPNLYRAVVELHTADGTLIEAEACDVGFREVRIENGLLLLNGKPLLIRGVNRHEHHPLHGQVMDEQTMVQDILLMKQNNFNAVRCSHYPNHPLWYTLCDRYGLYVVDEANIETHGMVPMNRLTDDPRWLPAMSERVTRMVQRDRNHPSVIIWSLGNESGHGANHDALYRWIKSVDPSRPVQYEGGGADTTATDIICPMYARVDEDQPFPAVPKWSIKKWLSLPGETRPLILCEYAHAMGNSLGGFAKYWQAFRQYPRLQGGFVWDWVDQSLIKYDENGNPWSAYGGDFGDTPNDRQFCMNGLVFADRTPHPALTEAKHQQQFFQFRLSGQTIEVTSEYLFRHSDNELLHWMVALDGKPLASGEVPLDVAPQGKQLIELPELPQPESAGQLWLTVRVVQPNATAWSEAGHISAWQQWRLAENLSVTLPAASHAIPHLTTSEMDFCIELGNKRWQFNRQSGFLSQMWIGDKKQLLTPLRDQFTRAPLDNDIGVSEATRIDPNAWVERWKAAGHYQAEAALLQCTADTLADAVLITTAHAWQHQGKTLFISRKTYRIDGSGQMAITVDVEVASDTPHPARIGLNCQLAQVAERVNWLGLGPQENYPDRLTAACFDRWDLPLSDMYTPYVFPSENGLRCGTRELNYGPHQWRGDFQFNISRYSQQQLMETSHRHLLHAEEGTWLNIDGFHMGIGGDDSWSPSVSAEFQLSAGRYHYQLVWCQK
measurement notes: Commercial glycosidase inhibition: β-galactosidase from E. coli (β-Galase)
Assay type: biochemical
reported conditions: mean ± SD, three determinations; competitive; n.i. = no inhibition detected at 1 mM
observable: Ki β-Galase

CCCCCCCCN=C1SCC2C(O)C(O)C(O)CN12 (stereo not drawn) [Compound 4] ... n.i.
CCCCN=C1SCC2C(O)C(O)C(O)CN12 (stereo not drawn) [Compound 8] ... n.i.
OC[C@@H]1[C@@H](O)[C@H](O)[C@@H](O)CN1C(=S)Nc1ccccc1 ... n.i.

###

Form field: pKi (one value per entry).
target entity: human β-glucocerebrosidase (GCase) (Homo sapiens, UniProt P04062, R534H)
Construct: purchased Genzyme (Genzyme Japan, Tokyo, Japan) / Sanofi Genzyme, Cambridge, MA, USA Cerezyme
Sequence (P04062 40-536 R534H): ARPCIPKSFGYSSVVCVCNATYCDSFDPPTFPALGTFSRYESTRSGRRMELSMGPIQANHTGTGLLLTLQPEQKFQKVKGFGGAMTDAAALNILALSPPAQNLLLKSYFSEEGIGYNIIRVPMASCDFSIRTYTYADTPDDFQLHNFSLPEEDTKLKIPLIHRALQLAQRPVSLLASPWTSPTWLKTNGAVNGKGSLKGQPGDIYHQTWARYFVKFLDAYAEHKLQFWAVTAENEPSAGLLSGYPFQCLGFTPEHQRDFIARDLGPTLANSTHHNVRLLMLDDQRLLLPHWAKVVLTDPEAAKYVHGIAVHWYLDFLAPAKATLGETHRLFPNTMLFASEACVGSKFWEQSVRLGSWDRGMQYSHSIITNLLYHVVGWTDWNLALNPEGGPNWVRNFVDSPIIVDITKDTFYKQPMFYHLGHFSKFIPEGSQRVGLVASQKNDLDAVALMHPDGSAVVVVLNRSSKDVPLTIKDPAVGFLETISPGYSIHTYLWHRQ
measurement notes: Purified recombinant human GCase inhibition in vitro
Type: biochemical
reported conditions: pH 7; purified recombinant enzyme (Cerezyme); 4-MU glucopyranoside substrate; read-out: Ki human GCase, pH 7
Protocol: Comparative assessment of the inhibition abilities of 1–4 against human lysosomal glycosidases in cell lysates (in vitro enzyme assay; see Experimental Section) confirmed the selectivity pattern previously observed for the commercial enzymes: whereas GCase was responsive to μM concentrations of the sp^2-iminosugars, the activity of lysosomal α-glucosidase, α- and β-galactosidases, α- and β-mannosidases, and hexosaminidase was not affected at concentrations of up to 200 μM. […]
The meaning of pKi here: minus log10 of the concentration in molar units.

Reference set (3 entries):
CCCCCCCCN=C1SCC2C(O)C(O)C(O)C(O)N12 (stereo not shown) ... 6.59
CCCCCCCCN=C1SCC2C(O)C(O)C(O)CN12 (stereo not shown) ... 7.89
CCCCCCCCN=C1OCC2C(O)C(O)C(O)C(O)N12 (stereo not shown) ... 4.82

Item under review: CCCCCCCC/N=C1/OC[C@@H]2[C@@H](O)[C@H](O)[C@@H](O)CN12 . Reported pKi?
5.77

###

target entity: α-glucosidase maltase (yeast maltase; α-Glcase1) (Saccharomyces cerevisiae, UniProt P53341)
Construct: purchased
Sequence (P53341 whole entry): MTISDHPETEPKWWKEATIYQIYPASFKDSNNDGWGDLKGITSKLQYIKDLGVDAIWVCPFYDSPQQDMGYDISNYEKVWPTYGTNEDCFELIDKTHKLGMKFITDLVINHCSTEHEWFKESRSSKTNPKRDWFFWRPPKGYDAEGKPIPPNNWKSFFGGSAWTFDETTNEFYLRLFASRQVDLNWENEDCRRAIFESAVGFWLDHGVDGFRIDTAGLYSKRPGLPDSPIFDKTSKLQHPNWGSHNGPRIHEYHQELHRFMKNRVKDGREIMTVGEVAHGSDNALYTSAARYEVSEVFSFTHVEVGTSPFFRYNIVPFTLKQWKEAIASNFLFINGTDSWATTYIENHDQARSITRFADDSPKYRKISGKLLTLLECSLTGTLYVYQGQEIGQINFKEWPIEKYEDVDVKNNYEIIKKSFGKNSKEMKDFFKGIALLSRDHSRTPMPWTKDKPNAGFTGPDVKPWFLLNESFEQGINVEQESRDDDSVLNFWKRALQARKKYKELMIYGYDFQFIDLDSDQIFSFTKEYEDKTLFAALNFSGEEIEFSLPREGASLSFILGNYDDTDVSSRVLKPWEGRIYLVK
measurement notes: Commercial glycosidase inhibition: maltase (yeast maltase; α-Glcase1)
Format: biochemical
reported conditions: mean ± SD, three determinations; competitive; n.i. = no inhibition detected at 1 mM; read-out: Ki α-Glcase1
observable: Ki (µM)
Numbers only here, please. The scale is µM.

Which Ki value belongs to CCCCNC(=S)N1C[C@H](O)[C@@H](O)[C@H](O)[C@H]1CO ?
568

###

target entity: isomaltase (α-Glcase2) (Saccharomyces cerevisiae, UniProt P53051)
Construct: purchased
measurement notes: Commercial glycosidase inhibition: isomaltase (α-Glcase2)
Assay type: biochemical
reported conditions: Dixon or Lineweaver-Burk plot; read-out: Ki against isomaltase (supplement figure legends)
observable: Ki

OC1CN2C(=Nc3ccccc3)SCC2C(O)C1O (centres unmarked) ... 44 µM

Now consider the entry below.
Missing value: Ki, isomaltase (α-Glcase2) (Saccharomyces cerevisiae, UniProt P53051), entry OC[C@@H]1[C@@H](O)[C@H](O)[C@@H](O)CN1C(=S)Nc1ccccc1 . Fill in?
18 µM

###

Target or system UniProt:P69328; recorded quantity Ki.
Sequence (P69328 25-640): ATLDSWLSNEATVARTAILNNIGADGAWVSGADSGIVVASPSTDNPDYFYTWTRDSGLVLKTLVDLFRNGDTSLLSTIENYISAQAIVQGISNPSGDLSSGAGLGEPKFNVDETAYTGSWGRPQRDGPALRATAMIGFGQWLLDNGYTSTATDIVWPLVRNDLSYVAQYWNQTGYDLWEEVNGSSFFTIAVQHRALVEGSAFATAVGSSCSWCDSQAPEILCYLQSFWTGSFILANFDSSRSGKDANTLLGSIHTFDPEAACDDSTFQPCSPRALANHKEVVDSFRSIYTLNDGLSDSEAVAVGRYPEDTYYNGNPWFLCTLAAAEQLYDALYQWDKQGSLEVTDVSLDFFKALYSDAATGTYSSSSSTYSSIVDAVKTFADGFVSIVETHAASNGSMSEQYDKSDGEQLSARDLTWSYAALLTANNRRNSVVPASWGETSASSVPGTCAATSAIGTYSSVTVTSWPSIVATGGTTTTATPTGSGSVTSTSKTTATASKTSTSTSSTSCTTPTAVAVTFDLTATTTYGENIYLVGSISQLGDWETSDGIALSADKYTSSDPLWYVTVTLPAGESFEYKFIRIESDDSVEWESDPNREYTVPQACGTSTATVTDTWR
Field: numeric (µM). Do not append units.

CCCCNC(=S)N1C[C@H](O)[C@@H](O)[C@H](O)[C@H]1CO [Compound 11] ... 213
OC[C@H]1[C@@H](O)[C@H](O)[C@@H](O)CN1C(=S)Nc1ccccc1 [Compound 15] ... 271
OC1CN2C(=Nc3ccccc3)SCC2C(O)C1O (centres unmarked) [Compound 6] ... 44

// returns reported Ki for input OC[C@@H]1[C@@H](O)[C@H](O)[C@@H](O)CN1C(=S)Nc1ccccc1 [Compound 12]
18

Dear colleague, I am looking for the recorded Ki of the following compound: CCCCCCCCNC(=S)N1C[C@H](O)[C@@H](O)[C@H](O)[C@H]1CO [Compound 10]
129

###

target entity: β-glucosidase from almonds (β-Glcase1)
measurement notes: Commercial glycosidase inhibition: β-glucosidase from almonds (β-Glcase1)
Format: biochemical
reported conditions: mean ± SD, three determinations; competitive; n.i. = no inhibition detected at 1 mM
pKi: −log10 of the molar value.
// map pKi to label using zone 1 = under 4, zone 2 = from 4 up to 5, zone 3 = 5 and over

Previously resolved entries follow.
CCCCCCCCNC(=S)N1C[C@H](O)[C@@H](O)[C@H](O)[C@@H]1CO ... zone 1
OC[C@@H]1[C@@H](O)[C@H](O)[C@@H](O)CN1C(=S)Nc1ccccc1 ... zone 2

For this compound, which bin applies? CCCCCCCCN=C1SCC2C(O)C(O)C(O)CN12 (stereo not drawn) [Compound 7]
zone 3

Record CCCCCCCCN=C1SCC2C(O)C(O)C(O)CN12 (stereo not drawn) [Compound 4] — which class?
zone 3

Tag the class for CCCCCCCCNC(=S)N1C[C@H](O)[C@@H](O)[C@H](O)[C@H]1CO
zone 3

Band for CCCCN=C1SCC2C(O)C(O)C(O)CN12 (stereo not drawn) [Compound 8] ?
zone 2

Quick check: band for CCCCN=C1SCC2C(O)C(O)C(O)CN12 (stereo not drawn) [Compound 5]
zone 3

Band for OC1CN2C(=Nc3ccccc3)SCC2C(O)C1O (stereo not drawn) [Compound 9] ?
zone 1

Pick a category. Item: OC[C@H]1[C@@H](O)[C@H](O)[C@@H](O)CN1C(=S)Nc1ccccc1
zone 1

Which pKi band matches OC1CN2C(=Nc3ccccc3)SCC2C(O)C1O (stereo not drawn) [Compound 6] ?
zone 2

Lab note: sort CCCCNC(=S)N1C[C@H](O)[C@@H](O)[C@H](O)[C@H]1CO into the matching pKi band.
zone 2

The entry to classify is CCCCNC(=S)N1C[C@H](O)[C@@H](O)[C@H](O)[C@@H]1CO ; which class holds it?
zone 2
